src = patent US11566022B2

- experimentalTarget: HiBit-WIZ fusion protein (Homo sapiens, UniProt O95785+Q96SW2)
- Sequence (O95785 whole entry, the tested form may be a part): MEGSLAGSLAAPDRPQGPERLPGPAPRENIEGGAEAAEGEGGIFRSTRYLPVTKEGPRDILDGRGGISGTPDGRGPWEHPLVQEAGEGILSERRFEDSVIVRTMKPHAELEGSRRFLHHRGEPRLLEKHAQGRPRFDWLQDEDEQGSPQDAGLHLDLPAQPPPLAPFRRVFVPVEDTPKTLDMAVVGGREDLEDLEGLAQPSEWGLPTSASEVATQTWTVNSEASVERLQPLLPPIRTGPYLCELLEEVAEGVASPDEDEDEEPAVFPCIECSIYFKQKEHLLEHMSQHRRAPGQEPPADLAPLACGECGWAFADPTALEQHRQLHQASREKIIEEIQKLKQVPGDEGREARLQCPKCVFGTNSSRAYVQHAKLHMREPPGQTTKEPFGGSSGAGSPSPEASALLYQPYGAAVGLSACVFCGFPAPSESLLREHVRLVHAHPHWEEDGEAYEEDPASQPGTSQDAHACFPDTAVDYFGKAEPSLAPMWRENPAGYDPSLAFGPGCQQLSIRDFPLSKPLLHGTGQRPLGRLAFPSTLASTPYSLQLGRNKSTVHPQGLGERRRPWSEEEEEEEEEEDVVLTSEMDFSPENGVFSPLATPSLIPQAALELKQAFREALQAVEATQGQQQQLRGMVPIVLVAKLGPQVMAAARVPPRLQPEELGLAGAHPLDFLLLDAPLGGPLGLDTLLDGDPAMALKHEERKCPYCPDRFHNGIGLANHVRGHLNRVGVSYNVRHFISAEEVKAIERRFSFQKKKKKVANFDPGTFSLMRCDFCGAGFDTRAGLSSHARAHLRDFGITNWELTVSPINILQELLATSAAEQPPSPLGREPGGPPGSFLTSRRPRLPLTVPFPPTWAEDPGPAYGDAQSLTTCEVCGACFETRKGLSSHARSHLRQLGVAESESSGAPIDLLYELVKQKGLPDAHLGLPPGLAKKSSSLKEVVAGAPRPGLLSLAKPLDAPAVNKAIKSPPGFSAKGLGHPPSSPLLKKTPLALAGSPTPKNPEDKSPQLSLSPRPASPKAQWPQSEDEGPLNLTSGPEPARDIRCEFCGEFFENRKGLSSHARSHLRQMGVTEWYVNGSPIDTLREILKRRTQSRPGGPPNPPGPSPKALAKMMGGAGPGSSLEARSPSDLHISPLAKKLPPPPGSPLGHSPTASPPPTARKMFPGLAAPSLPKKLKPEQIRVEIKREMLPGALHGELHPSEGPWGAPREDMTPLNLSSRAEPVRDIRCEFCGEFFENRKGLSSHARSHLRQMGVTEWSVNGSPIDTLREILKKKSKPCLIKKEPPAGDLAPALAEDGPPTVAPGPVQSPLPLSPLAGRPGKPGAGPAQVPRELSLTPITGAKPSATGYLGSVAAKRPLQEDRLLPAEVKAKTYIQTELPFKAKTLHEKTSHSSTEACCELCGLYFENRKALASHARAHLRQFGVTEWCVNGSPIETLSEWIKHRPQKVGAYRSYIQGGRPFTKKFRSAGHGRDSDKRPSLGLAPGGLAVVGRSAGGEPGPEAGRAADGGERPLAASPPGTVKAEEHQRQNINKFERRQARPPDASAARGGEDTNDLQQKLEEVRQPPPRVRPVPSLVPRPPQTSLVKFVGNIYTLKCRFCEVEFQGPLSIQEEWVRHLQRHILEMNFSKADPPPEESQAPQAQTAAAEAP
- Sequence (Q96SW2 whole entry, the tested form may be a part): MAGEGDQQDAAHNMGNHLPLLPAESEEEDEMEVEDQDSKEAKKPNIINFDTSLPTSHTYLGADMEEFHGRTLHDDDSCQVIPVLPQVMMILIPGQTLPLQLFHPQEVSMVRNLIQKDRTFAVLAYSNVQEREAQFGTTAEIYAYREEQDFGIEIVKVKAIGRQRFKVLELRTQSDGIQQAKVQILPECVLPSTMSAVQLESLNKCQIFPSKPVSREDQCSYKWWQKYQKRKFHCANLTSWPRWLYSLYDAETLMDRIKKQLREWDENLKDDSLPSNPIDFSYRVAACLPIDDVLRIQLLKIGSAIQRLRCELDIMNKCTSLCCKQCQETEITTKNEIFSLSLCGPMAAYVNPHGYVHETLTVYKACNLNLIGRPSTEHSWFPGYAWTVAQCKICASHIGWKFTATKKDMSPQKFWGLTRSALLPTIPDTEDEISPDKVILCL
- Sequence (Q16531 whole entry partner, the tested form may be a part): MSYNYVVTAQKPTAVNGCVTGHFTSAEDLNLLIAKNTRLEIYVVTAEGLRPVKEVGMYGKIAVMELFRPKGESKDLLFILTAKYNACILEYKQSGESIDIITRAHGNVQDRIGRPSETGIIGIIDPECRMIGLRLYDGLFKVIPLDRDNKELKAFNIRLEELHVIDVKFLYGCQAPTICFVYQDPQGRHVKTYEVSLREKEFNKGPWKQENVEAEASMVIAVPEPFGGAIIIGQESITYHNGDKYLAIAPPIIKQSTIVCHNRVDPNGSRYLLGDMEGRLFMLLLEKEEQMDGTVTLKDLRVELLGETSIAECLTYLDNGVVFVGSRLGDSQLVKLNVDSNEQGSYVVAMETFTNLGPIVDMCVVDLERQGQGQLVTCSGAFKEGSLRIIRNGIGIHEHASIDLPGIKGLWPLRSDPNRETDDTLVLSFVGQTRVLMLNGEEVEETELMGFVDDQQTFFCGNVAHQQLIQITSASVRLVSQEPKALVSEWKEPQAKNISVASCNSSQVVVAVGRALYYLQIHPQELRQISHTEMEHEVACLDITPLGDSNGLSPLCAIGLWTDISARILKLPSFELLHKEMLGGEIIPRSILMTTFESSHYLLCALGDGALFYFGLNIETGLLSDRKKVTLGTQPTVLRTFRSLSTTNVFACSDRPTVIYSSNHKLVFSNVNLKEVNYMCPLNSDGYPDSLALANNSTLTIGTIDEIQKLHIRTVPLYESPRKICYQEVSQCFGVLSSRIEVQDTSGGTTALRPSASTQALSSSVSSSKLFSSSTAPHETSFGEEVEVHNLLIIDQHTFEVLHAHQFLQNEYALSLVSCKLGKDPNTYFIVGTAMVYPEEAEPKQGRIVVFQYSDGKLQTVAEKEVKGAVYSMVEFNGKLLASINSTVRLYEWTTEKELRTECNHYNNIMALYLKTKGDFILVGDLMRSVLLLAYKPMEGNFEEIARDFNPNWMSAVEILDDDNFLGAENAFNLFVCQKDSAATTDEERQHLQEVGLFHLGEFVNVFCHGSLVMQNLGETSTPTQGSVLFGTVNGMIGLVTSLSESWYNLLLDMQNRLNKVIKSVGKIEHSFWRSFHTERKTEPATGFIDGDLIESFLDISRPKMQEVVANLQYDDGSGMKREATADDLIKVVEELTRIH
- assayInfo: Quantification of WIZ protein levels in HiBit tag fusion protein assay (WIZ HiBit assay in 293T cells)
- Format: cell-based
- Design: dose or concentration left out as unconfirmed
- testConditions: HEK-293T, 100 minus Amax; 293T cells; read-out: % degradation of WIZ (100-Amax)
propertyName: Dmax (%)

Reported Dmax for O=C1CCC(N2Cc3cc(OC[C@@H]4CCCCN4Cc4ccc(O)c(Cl)c4)ccc3C2=O)C(=O)N1 (some centres unmarked) [Compound I-50b] was 83

A = Cc1csc(CN2CCCC[C@@H]2COc2ccc3c(c2)CN(C2CCC(=O)NC2=O)C3=O)n1 (some centres unmarked)
B = CC(C)(C)OC(=O)NC1(CN2CCCC[C@H]2COc2ccc3c(c2)CN(C2CCC(=O)NC2=O)C3=O)CCCC1 (some centres unmarked) [Compound I-50aq]
C = O=C1CCC(N2Cc3cc(OC[C@@H]4CCCCN4C(=O)CCCn4cnnc4)ccc3C2=O)C(=O)N1 (some centres unmarked) [Compound I-72fv]
D = CC(C)(C)OC(=O)N1CCC(c2ccc(CN3CCCC[C@@H]3COc3ccc4c(c3)CN(C3CCC(=O)NC3=O)C4=O)cc2)CC1 (some centres unmarked)
Sort entries by Dmax from minimum to maximum value. Thanks in advance for listing the labels in the requested order.
C, B, A, D
(C: 1.1%, B: 15.4%, A: 65.1%, D: 93.4%)

---

- experimentalTarget: HiBit-WIZ fusion protein (Homo sapiens, UniProt O95785+Q96SW2)
- assayInfo: Quantification of WIZ protein levels in HiBit tag fusion protein assay (WIZ HiBit assay in 293T cells)
- Format: cell-based
- Set-up: dose or concentration left out as unconfirmed
- testConditions: HEK-293T, 100 minus Amax; 293T cells; read-out: % degradation of WIZ (100-Amax)
propertyName: Dmax (%)

Record O=C1CCC(N2Cc3cc(OC[C@H]4CCCCN4Cc4c(F)cccc4F)ccc3C2=O)C(=O)N1 (stereo partly drawn) . Reported Dmax: 71.6

Briefly, Dmax measured for O=C1CCC(N2Cc3cc(OC[C@@H]4CCCCN4C(=O)[C@H]4CCOC4)ccc3C2=O)C(=O)N1 (stereo partly drawn) [Compound I-72fn] : 2.6

Recorded Dmax (molecule O=C1CCC(N2Cc3cc(OCC4CC(F)(F)CCN4)ccc3C2=O)C(=O)N1 (stereo not drawn) ): 78.3

Short answer for Cc1nc2ccccn2c1CN1CCCC[C@@H]1COc1ccc2c(c1)CN(C1CCC(=O)NC1=O)C2=O (stereo partly drawn) [Compound I-50cd] : Dmax was 69.7

The molecule listed as NS(=O)(=O)c1cc(CN2CCCC[C@H]2COc2ccc3c(c2)CN(C2CCC(=O)NC2=O)C3=O)ccc1Cl (stereo partly drawn) [Compound I-50bd] shows Dmax equal to 41.1

A = O=C1CCC(N2Cc3cc(OC[C@H]4CCCCN4Cc4ccncc4)ccc3C2=O)C(=O)N1 (stereo partly drawn)
B = O=C1CCC(N2Cc3cc(OC[C@@H]4CCCCN4C(=O)Cc4cc[nH]n4)ccc3C2=O)C(=O)N1 (stereo partly drawn) [Compound I-72af]
For this pair, A and B , which shows a numerically higher Dmax? Give the label under which the chosen entry appears.
A
(A: 68.7%, B: 7.7%)

I = O=C1CCC(N2Cc3cc(OC[C@@H]4CCCCN4C(=O)c4cccc5cnccc45)ccc3C2=O)C(=O)N1 (stereo partly drawn) [Compound I-72j]
II = Cc1nc[nH]c1CN1CCCC[C@@H]1COc1ccc2c(c1)CN(C1CCC(=O)NC1=O)C2=O (stereo partly drawn) [Compound I-50cs]
Field: entry with larger Dmax (options I / II ). Response format: the label of the selected entry.
II

1 = CC(C)Oc1cccc(C(=O)N2CCCC[C@H]2COc2ccc3c(c2)CN(C2CCC(=O)NC2=O)C3=O)c1 (stereo partly drawn) [Compound I-72ju]
2 = CC(C)(C)OC(=O)NC1(CN2CCCC[C@@H]2COc2ccc3c(c2)CN(C2CCC(=O)NC2=O)C3=O)CCCC1 (stereo partly drawn) [Compound I-50cf]
3 = O=C1CCC(N2Cc3cc(OC[C@H]4CCCCN4Cc4ccccc4N4CCNCC4)ccc3C2=O)C(=O)N1 (stereo partly drawn)
4 = CCc1cc(C(=O)N2CCCC[C@H]2COc2ccc3c(c2)CN(C2CCC(=O)NC2=O)C3=O)on1 (stereo partly drawn) [Compound I-72ek]
Ordering criterion: Dmax; begin with the maximum. Sort the labels as requested; that list is your answer.
3, 2, 4, 1
(3: 80.1%, 2: 38.1%, 4: 21%, 1: 14.5%)
